# target_or_system: T1, Dimeric Human Ang-2FD conjugated to human IgG1 (human)
# T1 construct: also called Human Ang-2FD-hFc; hAng-2FD-hFc
# T1 sequence (chain, as listed by the source limits assumed): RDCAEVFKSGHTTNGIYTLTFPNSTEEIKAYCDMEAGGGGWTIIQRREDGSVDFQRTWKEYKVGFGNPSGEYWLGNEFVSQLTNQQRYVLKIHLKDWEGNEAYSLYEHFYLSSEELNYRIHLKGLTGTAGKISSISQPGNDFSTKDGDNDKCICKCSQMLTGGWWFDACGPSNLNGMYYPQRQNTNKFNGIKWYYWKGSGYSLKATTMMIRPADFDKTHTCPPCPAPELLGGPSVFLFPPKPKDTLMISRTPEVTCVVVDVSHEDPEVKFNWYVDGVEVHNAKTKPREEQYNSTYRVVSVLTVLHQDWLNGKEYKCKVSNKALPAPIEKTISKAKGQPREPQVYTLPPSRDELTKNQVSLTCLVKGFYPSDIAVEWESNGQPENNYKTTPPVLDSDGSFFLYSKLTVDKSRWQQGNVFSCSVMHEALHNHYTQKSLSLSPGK
# assay_overview: SPR, captured Ab, RT
Here the recorded pKd is given for each entry.
Reminder that pKd means the negative base-10 logarithm of the concentration expressed in mol/L.

// solved cases for pKd follow
1) H1H691P (antibody, V domains shown) VH: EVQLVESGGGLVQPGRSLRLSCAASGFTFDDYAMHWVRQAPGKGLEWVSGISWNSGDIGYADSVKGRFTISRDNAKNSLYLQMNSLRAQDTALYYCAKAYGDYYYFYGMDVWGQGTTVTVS VL: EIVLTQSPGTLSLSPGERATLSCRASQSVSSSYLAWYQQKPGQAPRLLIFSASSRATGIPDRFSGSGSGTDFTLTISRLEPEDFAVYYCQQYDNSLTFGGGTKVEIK	9.66
2) H1H728N (antibody, V domains shown) VH: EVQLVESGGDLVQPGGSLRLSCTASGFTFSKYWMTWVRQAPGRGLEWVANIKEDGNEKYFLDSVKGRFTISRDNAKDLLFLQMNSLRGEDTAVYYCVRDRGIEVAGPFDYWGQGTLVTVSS VL: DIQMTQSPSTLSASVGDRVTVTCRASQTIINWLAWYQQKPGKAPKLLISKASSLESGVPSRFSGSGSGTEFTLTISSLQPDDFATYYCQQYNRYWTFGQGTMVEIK	9.79

Let us examine a further case.
get_value(item= H1H749N (antibody, V domains shown) VH: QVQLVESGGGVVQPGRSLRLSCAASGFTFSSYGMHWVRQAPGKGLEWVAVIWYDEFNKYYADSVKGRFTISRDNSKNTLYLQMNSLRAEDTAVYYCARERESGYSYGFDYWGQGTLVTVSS VL: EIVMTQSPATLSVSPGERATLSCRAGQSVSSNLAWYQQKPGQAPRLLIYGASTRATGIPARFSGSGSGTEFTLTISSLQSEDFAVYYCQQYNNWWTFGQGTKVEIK , readout=pKd) returns 9.93
